system under test: human DGAT2 (hDGAT2) (Homo sapiens, UniProt Q96PD7)
Construct: made in house; host or cells: Sf-9 insect cells (baculovirus), membrane fraction
Sequence (Q96PD7 whole entry): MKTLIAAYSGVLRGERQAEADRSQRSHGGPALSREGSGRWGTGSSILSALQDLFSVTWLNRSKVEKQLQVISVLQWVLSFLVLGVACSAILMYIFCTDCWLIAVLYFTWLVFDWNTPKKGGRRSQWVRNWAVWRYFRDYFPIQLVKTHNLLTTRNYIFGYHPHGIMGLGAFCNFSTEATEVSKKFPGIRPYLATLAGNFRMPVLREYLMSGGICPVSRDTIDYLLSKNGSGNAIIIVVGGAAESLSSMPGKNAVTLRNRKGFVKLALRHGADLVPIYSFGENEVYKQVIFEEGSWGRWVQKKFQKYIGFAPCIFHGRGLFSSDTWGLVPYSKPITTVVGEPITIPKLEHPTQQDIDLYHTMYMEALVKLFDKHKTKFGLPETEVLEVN
measurement notes: DGAT2 Enzymatic Activity Assay
Format: biochemical
protocol conditions: membrane prep of Sf-9 cells expressing hDGAT2; 25 μM diolein, 5 μM 13C oleoyl-CoA; 13C18-triolein by LC/MS/MS; read-out: DGAT2 IC50
Assign labels as follows, please: yes for IC50 below 70 nM; no for IC50 equal to or exceeding 70 nM.

[[record]]
molecule = "CC(C(F)F)n1c(=O)n(-c2cccc(OC(F)F)c2)c2ccc(C(=O)NC3(C)CCS(=O)(=O)CC3)cc21 (single isomer, unassigned) [Example 45a]"
group_label = "yes"

[[record]]
molecule = "CC(C)n1c(=O)n(-c2cccc(OC(F)F)c2)c2ccc(C(=O)N[C@H]3CCOC[C@@H]3O)cc21"
group_label = "no"

[[record]]
molecule = "CC(C)n1c(=O)n(-c2cc(OCC(F)F)ccn2)c2cc(F)c(C(=O)NC3(C)CCS(=O)(=O)CC3)cc21"
group_label = "no"

[[record]]
molecule = "CCOc1cc(-n2c(=O)n(C(C)C(C)(C)O)c3cc(C(=O)NC4(C)CS(=O)(=O)C4)ccc32)c(F)cn1 (single isomer, unassigned) [Example 78b]"
group_label = "yes"

[[record]]
molecule = "CSc1cccc(-n2c(=O)n(C(C)C)c3cc(C(=O)NC4(C)CCS(=O)(=O)CC4)ccc32)c1"
group_label = "no"

